target: recombinant human TFPI (tissue factor pathway inhibitor) (human, UniProt P10646 29-304); assay: cell-based or functional assay
REPORTED PROPERTY: FXa assay % of FXa alone, 20 nM Ab, 10 nM TFPI (%)
Respond numerically; units are % and should not be typed.

Reported FXa assay % of FXa alone, 20 nM Ab, 10 nM TFPI, binder clone A67 (antibody, V domains shown) VH: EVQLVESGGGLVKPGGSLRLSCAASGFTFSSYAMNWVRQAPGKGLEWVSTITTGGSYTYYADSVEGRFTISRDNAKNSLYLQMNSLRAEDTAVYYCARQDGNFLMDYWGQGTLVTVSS VL: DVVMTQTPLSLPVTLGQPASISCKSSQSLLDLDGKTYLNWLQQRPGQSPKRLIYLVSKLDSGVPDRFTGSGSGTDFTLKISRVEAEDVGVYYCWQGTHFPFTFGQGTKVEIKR : ____
75.8

Reported FXa assay % of FXa alone, 20 nM Ab, 10 nM TFPI, binder clone 3203 (antibody, V domains shown) VH: EVQLVESGGGLVKPGGSLRLSCAASGFTFSSYAMSWVRQAPGKGLEWVSTITTGGSYTYYADSVEGRFTISRDNAKNSLYLQMNSLRAEDTAVYYCARQDGNFLMDYWGQGTLVTVSS VL: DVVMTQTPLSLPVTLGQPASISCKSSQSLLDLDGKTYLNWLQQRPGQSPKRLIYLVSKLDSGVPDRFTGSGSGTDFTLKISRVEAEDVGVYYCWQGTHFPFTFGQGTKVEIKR : ____
68

These entries and their values trace back to patent US20180030151A1.
